The values you see were collected from PubChem BioAssay (NCI).

# System: UO-31 renal
# experiment-description: NCI tumour cell line growth inhibition, 48 h
Answer each item with its documented log10 of TGI.
Give log10 of TGI, with TGI taken in µM.

Exam item: Look up log10 of TGI: CC[C@@]1(O)C[C@H](OC2CC(N(C)C)C(O)C(C)O2)c2c(cc3c(c2O)C(=O)c2c(O)ccc(O)c2C3=O)[C@H]1C(=O)OC (some centres undefined)
Marked response: 0.00

Exam item: So what does the record say about log10 of TGI for Cc1ccc([P+](Cc2ccccc2)(c2ccccc2)c2ccccc2)cc1 ?
Marked response: 1.83

Exam item: Reported log10 of TGI for C/C(=N\Nc1nc2cc(Cl)ccc2s1)c1ccccn1 : what is it?
Marked response: 1.17

Exam item: What value of measured log10 of TGI is listed for COc1cc(-c2cc3ncccc3c3nc(OCCN(C)C)c4cccnc4c23)cc(OC)c1OC ?
Marked response: 0.12

Exam item: Looking for the measured log10 of TGI of O=C(COc1ccccc1Cl)N1N=C(c2ccccc2)CC1(O)c1ccccc1 (centres undefined) , can you help?
Marked response: 1.56

###

Give measured GI50 for each item. Keep answers brief.
# Tested on: MALME-3M melanoma
# experiment-description: NCI tumour cell line growth inhibition, 48 h

Exam item: Bench note: what GI50 did C[C@@H](N)COc1ccc(-c2cnc3ccc(N[C@H](C)c4cccc(F)c4)nn23)cc1 show?
Marked response: 1330 nM

Exam item: What does the record list as GI50 for OCc1ccc(-c2csc(-c3ccc(CO)o3)c2)o1 ?
Marked response: 35500 nM

Exam item: Recorded GI50 for Oc1c(C(Nc2ccccn2)c2cccc(Oc3ccccc3)c2)ccc2cccnc12 (stereo unspecified) , please?
Marked response: 806 nM

Exam item: Can you look up the measured GI50 of Cn1cc(C2=C(c3c4n(c5ccccc35)CCNC4)C(=O)NC2=O)c2ccccc21 for me?
Marked response: > 11500 nM

Exam item: Find the recorded GI50 belonging to CCCCCCCCCCCCCC[n+]1ccccc1 and report it.
Marked response: 401 nM

Exam item: Recorded GI50 for O=C([O][Hg][c]1ccccc1)c1ccccc1 , please?
Marked response: 1770 nM

Exam item: Query: GI50; subject: Cc1ccc(C)c2c1C(=O)N(c1ccc(F)cc1F)C2=O
Marked response: > 100000 nM

Exam item: Which measured GI50 value corresponds to CC(c1cc(Cl)ccc1O)c1cc(Cl)ccc1O ?
Marked response: 4610 nM

Exam item: Any idea what its GI50 is? The compound is Cc1ccccc1C1=C(c2cn(C)c3ccccc23)C(=O)NC1=O
Marked response: 23900 nM

Exam item: Would you mind telling me what GI50 value was observed for O=C(/C=C/C12c3ccccc3C(c3ccccc31)C1C(=O)N(c3ccc(Cl)cc3)C(=O)C12)c1ccccn1 (stereo unspecified) ?
Marked response: 242 nM

Exam item: What value of GI50 has been reported for the following compound? O=C1C(=c2ccc(=C3C(=O)c4ccc([N+](=O)[O-])cc4[N+]3=O)cc2)N([O-])c2cc([N+](=O)[O-])ccc21
Marked response: > 100000 nM

###

# Test system: RPMI-8226 leukemia
# experiment-description: NCI tumour cell line growth inhibition, 48 h
measured-attribute: TGI

Exam item: Could you share which TGI value was measured for O=C(c1ccccc1)C(Cl)C(Cl)c1ccccc1 (configuration not stated) ?
Marked response: 7.08 µM

Exam item: Which TGI value is on record for Cn1c2ccc(F)cc2c2ccc3c(c21)C(=O)C=CC3=O ?
Marked response: 33.4 µM

Exam item: What value of TGI has been reported for the following compound? COc1ccccc1NC(=S)N=Nc1c(O)[nH]c2ccccc12
Marked response: > 100 µM

Exam item: What measured TGI goes with O[C@@H]1C[C@H](Cl)c2c(Cl)sc(Cl)c21 ?
Marked response: > 100 µM

Exam item: Which value of TGI has been reported for N#CC1C[C@@H]2CC3(CCC2CN1C(=O)c1ccccc1)OCCO3 (some centres not stated) in the records?
Marked response: > 100 µM

Exam item: Look at this compound and give its reported TGI. CCCCCCC1N=C(N)N=C(N)N1c1cccc(Cl)c1 (configuration not stated)
Marked response: 22 µM

Exam item: Reported TGI, compound COc1cccc2c1C(=O)c1c(O)c3c(c(O)c1C2=O)C[C@@](O)(C(C)=O)CC3S(=O)(=O)O (some centres not stated) : ____
Marked response: > 100 µM

Exam item: Which TGI is reported for this compound? OCC1OC2c3ccccc3COC2C1OCc1ccccc1 (configuration not stated)
Marked response: > 100 µM

Exam item: // returns reported TGI for input O=C(CN1CCN(Cc2ccccc2Cl)CC1)NC1CC(=O)c2c(Br)sc(Br)c21 (configuration not stated)
Marked response: 38.5 µM

Exam item: Which TGI is listed for COC1/C=C/C=C(/C)Cc2cc(O)c(Cl)c(c2)N(C)C(=O)CC(OC(=O)C(C)C)C2(C)OC2C(C)C2CC1(O)NC(=O)O2 (configuration not stated) ?
Marked response: > 100 µM

Exam item: Any idea what TGI was measured for N#CC(C#N)=NNc1ccc2cn[nH]c2c1 ?
Marked response: 65.4 µM

Exam item: Which TGI reading was recorded for the compound O=C1C=C(Nc2ccccc2C(=O)CC(=O)C(=O)Nc2ccc(Cl)cc2)c2ccccc2C1=O ?
Marked response: > 33.2 µM

Exam item: Recorded TGI for Oc1c(CN2CCCC2)ccc2cccnc12 , please?
Marked response: 48.2 µM

Exam item: Could you share which TGI value was measured for COc1cccc2c1OC1Sc3ccccc3-c3nn(-c4ccccc4)c-2c31 (configuration not stated) ?
Marked response: > 100 µM

Exam item: Which TGI value belongs to C/C(=N\NC(=S)N1CCN(c2ccccn2)CC1)c1ccccn1 ?
Marked response: 23.6 µM

Exam item: // returns reported TGI for input N#Cc1c(N)oc(-c2ccc([N+](=O)[O-])cc2)c1C#N
Marked response: > 100 µM

Exam item: # query: TGI of entry NC(=O)c1cccc2c(N[C@H](CN3CCC3)c3ccc(Cl)c(C(F)(F)F)c3)ncnc12
Marked response: 9.06 µM

Exam item: # lookup: TGI of Cc1c(C(=O)O)n2c(=S)[nH]nc2c2ccccc12
Marked response: > 100 µM

Exam item: I would be grateful if you could share the reported TGI for COC(=O)Oc1nn(C(=O)OC)c(=O)c2ccccc12 .
Marked response: > 100 µM

Exam item: Report TGI for O=C(O)CN(c1ccccc1)S(=O)(=O)c1cccc([N+](=O)[O-])c1 please.
Marked response: > 100 µM

Exam item: I have this compound here, COC(=O)CN(CC(=O)NCCCBr)C1CCCCC1N(CC(=O)OC)CC(=O)OC (configuration not stated) , and I need its recorded TGI.
Marked response: > 100 µM

Exam item: For the compound Fc1ccc(-c2sc(-c3ccsc3)cc2Cc2ccsc2)cc1 , what TGI is on record?
Marked response: > 10 µM
